biological target: K-Ras G12C (Homo sapiens (Human), UniProt P01116+P62937, G12C); assay: Ras-Raf (BRAF RBD) disruption / FRET / MOA assay, KRAS G12C; format: biochemical; details: KRAS G12C; Ras-Raf disruption/FRET/MOA assay; read-out: IC50* KRAS G12C FRET data
Sequence (P01116-2 other isoform, or with tags, fused parts or gaps G12C): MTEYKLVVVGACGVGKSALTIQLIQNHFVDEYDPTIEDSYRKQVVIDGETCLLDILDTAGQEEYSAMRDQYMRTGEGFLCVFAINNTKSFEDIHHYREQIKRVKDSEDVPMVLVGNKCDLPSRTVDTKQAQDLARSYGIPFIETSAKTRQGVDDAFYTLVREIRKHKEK
Sequence (P62937 whole entry): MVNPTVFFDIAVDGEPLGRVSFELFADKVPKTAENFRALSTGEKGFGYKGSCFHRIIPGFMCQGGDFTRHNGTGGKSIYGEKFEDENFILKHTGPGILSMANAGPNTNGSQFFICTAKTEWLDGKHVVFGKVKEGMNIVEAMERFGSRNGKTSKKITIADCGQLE
The following compounds are listed with their measured IC50 values.

// solved cases for IC50 follow
C/C=C(\C)S(=O)(=O)N1CC[C@H](C(=O)N(C)[C@H](C(=O)N[C@H]2Cc3cccc(c3)-c3ccc4c(c3)c(c(-c3cccnc3[C@H](C)OC)n4CC)CC(C)(C)COC(=O)[C@@H]3CCCN(N3)C2=O)C(C)C)C1 (atropisomer, axis not shown) ... > 10000 nM
CCn1c(-c2cccnc2[C@H](C)OC)c2c3cc(ccc31)-c1csc(n1)C[C@H](NC(=O)[C@@H](COC1CN(C(=O)C#CC(C)(C)N(C)C)C1)C(C)C)C(=O)N1CCC[C@H](N1)C(=O)OCC(C)(C)C2 (atropisomer, axis not shown) ... < 10 nM
C=CC(=O)N1CC[C@H](C(=O)N(C)[C@H](C(=O)N[C@H]2Cc3nc(cs3)-c3ccc4c(c3)c(c(-c3cccnc3[C@H](C)OC)n4CC)CC(C)(C)C/C=C/[C@@H]3CCCN(N3)C2=O)C(C)C)C1 (atropisomer, axis not shown) ... > 10000 nM

Field: next compound
For the compound shown here, C=CC(=O)N1CCO[C@H]2CN(C(=O)N(C)[C@H](C(=O)N[C@H]3CC4=NN=C(O4)c4ccc5c(c4)c(c(-c4cccnc4[C@H](C)OC)n5CC(F)(F)F)CC(C)(C)COC(=O)[C@@H]4CCCN(N4)C3=O)C(C)C)C[C@H]21 (atropisomer, axis not shown) , give the reported IC50.
100 to 1000 nM

---

The following compounds are listed with their measured IC50 values.
target: K-Ras G13C (Homo sapiens (Human), UniProt P01116+P62937, G13C); assay: Ras-Raf (BRAF RBD) disruption / FRET / MOA assay, KRAS G13C; format: biochemical; conditions: KRAS G13C; Ras-Raf disruption/FRET/MOA assay; read-out: IC50* KRAS G13C FRET data
Sequence (P01116-2 other isoform, or with tags, fused parts or gaps G13C): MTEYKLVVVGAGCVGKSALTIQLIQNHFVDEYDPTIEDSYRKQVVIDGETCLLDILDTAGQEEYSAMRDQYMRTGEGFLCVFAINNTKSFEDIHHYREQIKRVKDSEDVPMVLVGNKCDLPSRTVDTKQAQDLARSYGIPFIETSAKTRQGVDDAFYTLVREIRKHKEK
Sequence (P62937 whole entry): as the sequence (P62937 whole entry) above

C=CC(=O)N1CCCN(C(=O)N(C)[C@H](C(=O)N[C@H]2Cc3nc(cs3)-c3ccc4c(c3)c(c(-c3cccnc3[C@H](C)OC)n4CC)CC(C)(C)COC(=O)[C@@H]3CCCN(N3)C2=O)C(C)C)CC1 (atropisomer, axis not shown) ... 0.1 to 1 µM
C=CC(=O)N(C)[C@H]1CN(C(=O)N(C)[C@H](C(=O)N[C@H]2Cc3nc(cs3)-c3ccc4c(c3)c(c(-c3cccnc3[C@H](C)OC)n4CC)CC(C)(C)COC(=O)[C@@H]3CCCN(N3)C2=O)C(C)C)C[C@H]1F (atropisomer, axis not shown) ... 0.1 to 1 µM
C=CC(=O)N1CC(OCC(C(=O)N[C@H]2Cc3cccc(c3)-c3ccc4c(c3)c(c(-c3cccnc3[C@H](C)OC)n4CC)CC(C)(C)COC(=O)[C@@H]3CCCN(N3)C2=O)C(C)C)C1 (some centres unmarked) [Example A483] ... 1 to 10 µM
C=CC(=O)N1CC[C@H](C(=O)N(C)[C@H](C(=O)N[C@H]2Cc3csc(n3)-c3ccc4c(c3)c(c(-c3cccnc3[C@H](C)OC)n4CC(F)(F)F)CC(C)(C)COC(=O)[C@@H]3CCCN(N3)C2=O)C(C)C)C1 (atropisomer, axis not shown) ... 0.1 to 1 µM
C=CC(=O)N1CC2(CCN(C(=O)N(C)[C@H](C(=O)N[C@H]3Cc4nc(cs4)-c4ccc5c(c4)c(c(-c4cccnc4[C@H](C)OC)n5CC)CC(C)(C)COC(=O)[C@@H]4CCCN(N4)C3=O)C(C)C)CC2)C1 (atropisomer, axis not shown) ... 0.01 to 0.1 µM
C=CC(=O)N1C[C@@H](C(=O)N(C)[C@H](C(=O)N[C@H]2Cc3cccc(c3)-c3ccc4c(c3)c(c(-c3cccnc3[C@H](C)OC)n4CC)CC(C)(C)COC(=O)[C@@H]3CCCN(N3)C2=O)C(C)C)C(C)(C)C1 (atropisomer, axis not shown) ... 0.1 to 1 µM
C=CC(=O)N1CC[C@H](C(=O)N(C)[C@H](C(=O)N[C@H]2Cc3cc(O)cc(c3)-c3ccc4nc(-c5cccnc5[C@H](C)OC)n(c4c3)CC(C)(C)COC(=O)[C@@H]3CCCN(N3)C2=O)C(C)C)C1 ... 1 to 10 µM

Form: Entry = C=CC(=O)N1CC[C@H](C(=O)Nc2ccccc2C(=O)N[C@H]2Cc3cc(O)cc(c3)-c3ccc4c(c3)c(c(-c3cnccc3COC)n4CC)CC(C)(C)COC(=O)[C@@H]3CCCN(N3)C2=O)C1 | System = K-Ras G13C (Homo sapiens (Human), UniProt P01116+P62937, G13C) | IC50 = ____
> 10 µM
